Property: IC50; scope: individual compounds
system: MYB mRNA; experiment: RT-qPCR splicing assay, MYB mRNA canonical (CJ) and alternative (AJ) junction; type: cell-based, human; conditions: Homo sapiens, MYB canonical junction mRNA, RT-qPCR; read-out: MYB CJ (decrease in CJ mRNA levels, IC50)

The following compounds have reported results that may help.
[[record]]
compound = "Cc1c(O)c(-c2nc(C(=O)NC(C)C)c3cc(N4C[C@@H](C)N[C@@H](C)C4)ccc3n2)cc2cn(C)nc12"
readout_kind = "IC50"
reported_value = "< 100 nM"

[[record]]
compound = "Cc1c(O)c(-c2ccc3nc(N4CC[C@@H](NC5(C)CC5)C4)ccc3n2)cc2cn(C)nc12"
readout_kind = "IC50"
reported_value = "< 100 nM"


Q. For the compound CC(C)NC1CCN(c2ccc3nc(-c4cc5cn(C)nc5c(F)c4O)ccc3n2)C1 (stereo not shown) , what IC50 is on record?
A. < 100 nM

Q. # input compound: Cc1c(O)c(-c2cc(C(C)O)c3nc(N4CCNCC4)ccc3n2)cc2cn(C)nc12 (stereo not shown) ; wanted: its IC50
A. 1000 to 10000 nM

* * *

tested on: MYB mRNA; test: RT-qPCR splicing assay, MYB mRNA canonical (CJ) and alternative (AJ) junction; format: cell-based, human; details: Homo sapiens, RT-qPCR, MYB canonical junction mRNA decrease; read-out: MYB CJ (decrease in canonical junction mRNA, IC50)
Measured IC50 by item

Recorded IC50, per entry:
[[record]]
molecule = "C[C@@H]1CN(c2ccc3nc(-c4cc5cn(C)nc5cc4O)nc(C4CCC4)c3c2)C[C@H](C)N1"
readout_kind = "IC50"
reported_value = "1 to 10 µM"

[[record]]
molecule = "CCc1cn2cc(-c3ncc4cc(N5C[C@@H](C)N[C@@H](C)C5)ccc4n3)cc(F)c2n1"
readout_kind = "IC50"
reported_value = "> 10 µM"

[[record]]
molecule = "Cc1c(O)c(-c2ncc3cc(N4CCNC5(CC5)C4)ccc3n2)cc2cn(C)nc12"
readout_kind = "IC50"
reported_value = "0.1 to 1 µM"

[[record]]
molecule = "C[C@@H]1CN(c2ccc3nc(-c4cc(F)c5nc(CO)cn5c4)ncc3c2)C[C@H](C)N1"
readout_kind = "IC50"
reported_value = "0.1 to 1 µM"

[[record]]
molecule = "Cc1c(O)c(-c2ccc3cc(N4CCNC5(CC5)C4)cc(F)c3n2)cc2cn(C)nc12"
readout_kind = "IC50"
reported_value = "< 0.1 µM"

[[record]]
molecule = "Cc1nc(-c2cc3cn(C)nc3cc2O)nc2ccc(N3C[C@@H](C)N[C@@H](C)C3)cc12 [Compound 782, 2,2,2-trifluoroacetate]"
readout_kind = "IC50"
reported_value = "0.1 to 1 µM"

[[record]]
molecule = "C[C@@H]1CN(c2ccc3nc(-c4cc5cn(C)nc5cc4O)nc(C(N)=O)c3c2)C[C@H](C)N1 [Compound 785, 2,2,2-trifluoroacetate]"
readout_kind = "IC50"
reported_value = "< 0.1 µM"

[[record]]
molecule = "Cc1cn2cc(-c3ncc4cc(N5C[C@H](C)N[C@@H](C)C5)ccc4n3)cc(Cl)c2n1 (single isomer, unassigned)"
readout_kind = "IC50"
reported_value = "< 0.1 µM"

[[record]]
molecule = "Cc1cn2nc(-c3ncc4cc(N5CCNC6(CC6)C5)ccc4n3)cc(C)c2n1"
readout_kind = "IC50"
reported_value = "1 to 10 µM"

[[record]]
molecule = "CN(C)C1CCN(c2ccc3nc(-c4cc5cn(C)nc5c(F)c4O)ncc3c2)CC1"
readout_kind = "IC50"
reported_value = "< 0.1 µM"


We next turn to a different molecule, shown below.
Q. Look up IC50: "Cn1cc2cc(-c3ncc4cc(N5CC[C@@H](NC(C)(C)C)C5)ccc4n3)c(O)c(F)c2n1"
A. 0.1 to 1 µM
